Target sequence: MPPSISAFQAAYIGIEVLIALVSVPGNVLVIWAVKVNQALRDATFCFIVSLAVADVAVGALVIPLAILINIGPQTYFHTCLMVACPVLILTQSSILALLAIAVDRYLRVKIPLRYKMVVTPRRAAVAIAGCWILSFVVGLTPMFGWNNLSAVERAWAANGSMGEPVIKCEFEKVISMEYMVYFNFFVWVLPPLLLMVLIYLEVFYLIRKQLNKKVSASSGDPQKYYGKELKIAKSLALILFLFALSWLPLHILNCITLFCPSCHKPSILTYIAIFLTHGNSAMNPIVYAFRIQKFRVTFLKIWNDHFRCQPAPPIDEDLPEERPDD
outcome measure: Ki (nM)
Just the number in nM, nothing appended.

Past entries and their recorded results:
[[record]]
compound = "COc1ccc(N)c2c1C(=O)c1ccccc1C2=O [compound 26]"
value_observed = 260

[[record]]
compound = "Nc1ccc(Cl)c2c1C(=O)c1ccccc1C2=O [compound 49]"
value_observed = 190

[[record]]
compound = "Nc1c(C(=O)Nc2nccs2)sc2nc3c(cc12)C(=O)CCC3 [compound 14]"
value_observed = 140


Suppose we examine the compound Nc1c(C(=O)Nc2ccccc2F)sc2nc3c(cc12)C(=O)CCC3 [compound 6] ; what Ki value has been reported?
90

Suppose we examine the compound N#Cc1c(N)nc2c(oc3ccccc32)c1-c1ccccc1 [compound 15] ; what Ki value has been reported?
480

Suppose we examine the compound CN1CCc2nc3sc(C(=O)Nc4ccc(Cl)cc4)c(N)c3cc2C1 [compound 10] ; what Ki value has been reported?
1120

Suppose we examine the compound Cc1ccc(N2C(=O)c3cccc(N)c3C2=O)cc1 [compound 21] ; what Ki value has been reported?
390
